Source listed as ChEMBL document CHEMBL3988442.

Provide the recorded Percent Effect for the entries that follow.
# Test system: Plasmodium falciparum
# experimental_protocol: Calibr Malaria Delayed Death Assay SOP
# Assay type: functional, organism-based
# Parameters: scale not given: in the data most compounds retested in dose-response had high values
# conditions_used: concentration 4.99e-06 (unit not given; other assays of the set use mol/L)
Among all 38,000 compounds or so, about 1,200 (3.2%) showed an effect of 50% or more. The median lay at about -58%. Shown is part of a subset that was picked to be rich in strong results.
Please provide the amount together with its unit, number first.

Fill in: Percent Effect of Cc1cc(C(=O)NCc2ccco2)nn1C is ___
-62.29%

Fill in: Percent Effect of Cc1cc(C)c2cc(CNCc3ccco3)c3nn(C)c(=O)n3c2c1 is ___
74.31%

Fill in: Percent Effect of CCN1CCN(c2ccc(F)cc2C(C)NCc2ccccn2)CC1 (stereo not drawn) is ___
85.11%

Fill in: Percent Effect of CC(NCc1ccccn1)c1cc2c(cc1Br)OCCO2 (stereo not drawn) is ___
22.3%

Fill in: Percent Effect of Cc1cc(C)c2cc(CNCc3cccnc3)c3nn(C)c(=O)n3c2c1 is ___
28.22%

Fill in: Percent Effect of Cc1ccccc1CN1CCC(NCC2CNc3ccnn3C2)CC1 (stereo not drawn) is ___
66.35%

Fill in: Percent Effect of CCN1CCN(c2ccc(F)cc2C(C)NCc2ccnn2C)CC1 (stereo not drawn) is ___
75.25%

Fill in: Percent Effect of CC(NCc1ccncc1)c1cc2c(cc1Br)OCCO2 (stereo not drawn) is ___
7.247%

----------
Provide the recorded Percent Effect for the entries that follow.
# Tested on: Plasmodium falciparum
# experimental_protocol: Calibr Malaria Delayed Death Assay SOP
# Assay type: functional, organism-based
# Design: scale not given: in the data most compounds retested in dose-response had high values
# conditions_used: concentration 4.99e-06 (unit not given; other assays of the set use mol/L)
The campaign covered roughly 38,000 compounds. About 1,200 (3.2%) showed an effect of 50% or more. The median lay at about -58%. The list comes from a sample in which strong results are over-represented; it also holds close analogues and randomly drawn compounds.
Please respond with the number in % and leave the unit unwritten.

Fill in: Percent Effect of CNC(=O)c1ccc(C(=O)N2CCCC(n3ccnc3C)C2)cn1 (configuration not stated) is ___
-171.6

Fill in: Percent Effect of CN(C)C(=O)CN1CCCC1c1cccc(Cc2ccccc2F)n1 (configuration not stated) is ___
67.28

Fill in: Percent Effect of CN(C)C(=O)CCc1cncc(C2CCCN2Cc2ccccn2)n1 (configuration not stated) is ___
-28.93

Fill in: Percent Effect of Cc1cccc(CN2C(=O)CO[C@@H]3CN(Cc4cnn(C)c4)C[C@H]32)c1.O=C(O)C(F)(F)F.O=C(O)C(F)(F)F is ___
-89.5

Fill in: Percent Effect of CCOc1cccc(CNc2ccccc2C(F)(F)F)c1O is ___
-100.4

Fill in: Percent Effect of Cc1n[nH]c(SCCNC2CCN(c3nc4ccccc4s3)CC2)n1 is ___
-208.3

Fill in: Percent Effect of Cc1cc(CN(C)c2nc(-c3ccco3)nc3c2CCN(C)CC3)on1 is ___
-7.108

Fill in: Percent Effect of COc1ccc(NC2CCCN(Cc3cnc(N(C)C)s3)C2)cc1OC (configuration not stated) is ___
-57.98

Fill in: Percent Effect of CN(C)S(=O)(=O)N1CCCC(c2cccc(Cc3ccccc3F)n2)C1 (configuration not stated) is ___
-73.25

Fill in: Percent Effect of CN1CCN(Cc2ccccc2CNC(=O)c2cc(Cl)ccc2F)CC1 is ___
65.2

Fill in: Percent Effect of COCC(=O)N(Cc1ccc2[nH]ccc2c1)C1CC1 is ___
-74.09

Fill in: Percent Effect of Cc1cc(CN(C)c2nc(-c3ccccn3)nc3c2CCNCC3)n[nH]1 is ___
68.42

Fill in: Percent Effect of CN(Cc1ncc(-c2ccccc2)o1)CC1CCCN1c1cccnn1 (configuration not stated) is ___
-41.68

Fill in: Percent Effect of Cc1ccc(CNC(c2cccc(F)c2)c2nccn2C)o1.Cl (configuration not stated) is ___
35.29

Fill in: Percent Effect of CNC(=O)Cc1cc2nccc(-c3c(OC)cccc3OC)n2n1 is ___
-192.8

Fill in: Percent Effect of CC(C)c1nnc2n1CC(CNCc1cccnc1)CC2 (configuration not stated) is ___
-95.11

Fill in: Percent Effect of Cn1c2ccc(F)cc2c2ncn(CCN3CCOCC3)c(=O)c21 is ___
-139.8

Fill in: Percent Effect of CCc1ncc2c(n1)CN(CC(=O)Nc1ccc(Cl)cn1)CC2 is ___
58.18

Fill in: Percent Effect of Cn1ccc(C(=O)NCc2ccccc2CN2CCCCC2)cc1=O is ___
-63.4

Fill in: Percent Effect of CN(Cc1ccon1)c1nc(-c2ccccn2)nc2c1CCNCC2 is ___
75.26

Fill in: Percent Effect of O=C(NCC(O)c1ccsc1)Nc1cccs1 (configuration not stated) is ___
-26.53

Fill in: Percent Effect of CCCC(O)CN1CCC(=O)N(C)Cc2cc(F)ccc21 (configuration not stated) is ___
-57.01

Fill in: Percent Effect of COCCn1cnnc1CCNc1cc(C)nc2ccnn12 is ___
-117.5

Fill in: Percent Effect of CC(C)c1nc2c(n1C)CCN(CC(=O)Nc1ccc(Cl)cn1)C2 is ___
-37.81

Fill in: Percent Effect of NC(=O)C1(c2cnccn2)CCCN1Cc1ccccn1 (configuration not stated) is ___
-37.82

Fill in: Percent Effect of COCCCNc1nc(CNC(C)=O)cc(-c2ccco2)n1 is ___
-87.48

Fill in: Percent Effect of Cn1ccnc1SCCNC1CCN(c2nc3ccccc3s2)CC1 is ___
58.02

Fill in: Percent Effect of COc1ccc(-c2nnsc2C(=O)N2CCOCC2)cc1 is ___
-93.54

Fill in: Percent Effect of Cc1ccccc1CN(CCN(C)C)Cc1ccc(S(C)(=O)=O)cc1 is ___
79.52

Fill in: Percent Effect of Cc1nn(C)c2ncc(NC(=O)N3CCCCCC3)cc12 is ___
-40.12

Fill in: Percent Effect of O=C(c1cnccn1)N1C[C@@H]2CC[C@H](C1)N(S(=O)(=O)c1cccnc1)C2 is ___
-81.69

Fill in: Percent Effect of COc1cc(C)ccc1OCCN1CC[C@@]2(O)CCNC[C@H]2C1 is ___
-90.26

Fill in: Percent Effect of O=C(c1cccnc1O)N(CCO)Cc1cc(Br)ccc1F is ___
-29.02

Fill in: Percent Effect of CCc1ccccc1OCCN1CC[C@@]2(O)CCNC[C@H]2C1 is ___
-93.81

Fill in: Percent Effect of Cc1ccc(CNC(c2ccc(F)cc2)c2nccn2C)o1 (configuration not stated) is ___
-33.59

Fill in: Percent Effect of CN1CCN(Cc2ccccc2CNC(=O)c2ccc(Br)cc2)CC1 is ___
45.05

Fill in: Percent Effect of O=C(c1cscn1)N1CCCCC1c1nc2cc(F)ccc2[nH]1 (configuration not stated) is ___
-66.74
